Source: patent US20230257372A1

- SUBJECT OF TEST: human recombinant HDAC6 (Homo sapiens)
- Construct: purchased Calbiochem Inc. 382180
- Sequence (Q9UBN7 1-1215): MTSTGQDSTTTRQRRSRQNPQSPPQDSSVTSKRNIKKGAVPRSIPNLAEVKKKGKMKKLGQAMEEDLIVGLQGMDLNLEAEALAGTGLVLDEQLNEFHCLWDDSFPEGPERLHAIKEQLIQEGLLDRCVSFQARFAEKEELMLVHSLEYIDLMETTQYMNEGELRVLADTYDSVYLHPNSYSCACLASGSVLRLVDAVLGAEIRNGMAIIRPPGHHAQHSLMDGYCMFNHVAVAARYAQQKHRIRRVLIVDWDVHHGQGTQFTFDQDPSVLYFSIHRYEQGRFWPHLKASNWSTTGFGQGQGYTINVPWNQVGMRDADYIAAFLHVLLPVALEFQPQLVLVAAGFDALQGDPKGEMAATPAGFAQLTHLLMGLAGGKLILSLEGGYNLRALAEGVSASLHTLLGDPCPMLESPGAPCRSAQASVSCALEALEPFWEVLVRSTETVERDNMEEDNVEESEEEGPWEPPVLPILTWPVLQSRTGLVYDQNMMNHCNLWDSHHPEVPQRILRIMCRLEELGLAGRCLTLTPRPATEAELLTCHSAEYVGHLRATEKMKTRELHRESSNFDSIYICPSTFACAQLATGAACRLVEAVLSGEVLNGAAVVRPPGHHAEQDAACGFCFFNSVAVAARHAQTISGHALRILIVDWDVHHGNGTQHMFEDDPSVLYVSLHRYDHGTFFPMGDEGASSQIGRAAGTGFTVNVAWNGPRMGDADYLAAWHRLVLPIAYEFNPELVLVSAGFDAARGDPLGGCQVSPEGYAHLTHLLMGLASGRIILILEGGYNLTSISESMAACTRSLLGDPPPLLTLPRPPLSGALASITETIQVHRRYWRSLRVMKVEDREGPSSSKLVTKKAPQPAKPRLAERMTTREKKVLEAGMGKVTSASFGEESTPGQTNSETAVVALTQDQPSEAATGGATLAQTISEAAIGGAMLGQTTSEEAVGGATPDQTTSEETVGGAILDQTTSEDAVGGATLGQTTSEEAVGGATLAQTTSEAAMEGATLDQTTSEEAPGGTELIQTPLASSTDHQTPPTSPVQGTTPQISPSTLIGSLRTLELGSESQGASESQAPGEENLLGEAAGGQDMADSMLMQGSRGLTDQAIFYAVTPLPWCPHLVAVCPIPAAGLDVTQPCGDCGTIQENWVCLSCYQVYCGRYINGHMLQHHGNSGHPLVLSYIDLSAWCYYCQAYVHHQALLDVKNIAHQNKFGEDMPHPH
- PROTOCOL: HDAC6 enzyme activity inhibition (HDAC Fluorimetric Drug Discovery Kit)
- Format: biochemical
- CONDITION SUMMARY: human recombinant HDAC6; IC50 calculated with GraphPad Prism
Reported IC50 is given for each of the following molecules.
MEASURED METRIC: IC50 (nM)

>>> df
                              sample_smiles  quantitative_readout
0  Fc1cc(-c2nnc(C(F)F)o2)ccc1Cn1cc(-c2ccc3c(c2)CN(C2CCC2)CC3)nn1                  36.8
1  CC(C)(C)OC(=O)N1CCC(c2cn(Cc3ccc(-c4nnc(C(F)F)o4)cc3F)nn2)CC1                   156
2  Cc1nc(-c2ccccc2)cn1Cc1ccc(-c2nnc(C(F)F)o2)cn1                   193
3  Cc1cc2ccc(-c3cn(Cc4ccc(-c5nnc(C(F)F)o5)cn4)nn3)cc2[nH]1                  23.9

----------
- SUBJECT OF TEST: human recombinant HDAC6 (Homo sapiens)
- Construct: purchased Calbiochem Inc. 382180
- PROTOCOL: HDAC6 enzyme activity inhibition (HDAC Fluorimetric Drug Discovery Kit)
- Format: biochemical
- CONDITION SUMMARY: human recombinant HDAC6, same protocol as HDAC1
pIC50: −log10 of the molar value.
Could you label it 1.0 if measured pIC50 is 7 or higher, and 0.0 otherwise?

                                   molecule  label_value
0  Fc1cc(-c2nnc(C(F)F)o2)ccc1Cn1cc(-c2cn[nH]c2)nn1 [Compound 17261]          1.0
1  Fc1cc(-c2nnc(C(F)F)o2)ccc1Cn1cc(-c2ccc(CN3CC[C@H](F)C3)cc2)nn1 [Compound 4606]          1.0
2  Fc1cc(-c2nnc(C(F)F)o2)cnc1Cn1cc(-c2ccccc2CN2CCC2)nn1 [Compound 18822]          0.0
3  Fc1cc(-c2nnc(C(F)F)o2)ccc1Cn1cc(-c2ccc(CN3CCCC3)s2)nn1 [Compound 17913]          1.0

----------
- SUBJECT OF TEST: human recombinant HDAC6 (Homo sapiens)
- Construct: purchased Calbiochem Inc. 382180
- PROTOCOL: HDAC6 enzyme activity inhibition (HDAC Fluorimetric Drug Discovery Kit)
- Format: biochemical
- CONDITION SUMMARY: HDAC1 IC50 / HDAC6 IC50
Reported HDAC6 selectivity (fold) is given for each of the following compounds.
MEASURED METRIC: HDAC6 selectivity (fold)

>>> df
                                   compound                         subject_of_test           measured_metric  quantitative_readout
0  Fc1cc(-c2nnc(C(F)F)o2)ccc1Cn1cc(-c2ccc3c(c2)CCN(C2COC2)C3)nn1 [Compound 4362]  human recombinant HDAC6 (Homo sapiens)  HDAC6 selectivity (fold)                   762
1  FC(F)c1nnc(-c2ccc(Cn3cc(-c4ccncc4)nn3)nc2)o1 [Compound 3837]  human recombinant HDAC6 (Homo sapiens)  HDAC6 selectivity (fold)                   965
2  Fc1cc(-c2nnc(C(F)F)o2)ccc1Cn1cc(-c2cccc(NC3CCCCC3)c2)nn1 [Compound 4330]  human recombinant HDAC6 (Homo sapiens)  HDAC6 selectivity (fold)                   268
3  CN1CC(NCc2ccc(-c3cn(Cc4ccc(-c5nnc(C(F)F)o5)cc4F)nn3)cc2)C1 [Compound 4470]  human recombinant HDAC6 (Homo sapiens)  HDAC6 selectivity (fold)                   915
4  Cc1ccncc1-c1cn(Cc2ccc(-c3nnc(C(F)F)o3)cn2)nn1 [Compound 4181]  human recombinant HDAC6 (Homo sapiens)  HDAC6 selectivity (fold)                  1400
5  Fc1cc(-c2nnc(C(F)F)o2)ccc1Cn1cc(-c2cccc3cc[nH]c23)nn1 [Compound 4082]  human recombinant HDAC6 (Homo sapiens)  HDAC6 selectivity (fold)                   349
6  CN(C)CCC(=O)Nc1cccc(-c2cn(Cc3ccc(-c4nnc(C(F)F)o4)cc3F)nn2)c1 [Compound 4335]  human recombinant HDAC6 (Homo sapiens)  HDAC6 selectivity (fold)                   797
7  Cc1cc2ccc(-c3cn(Cc4ccc(-c5nnc(C(F)F)o5)cc4)nn3)cc2[nH]1 [Compound 4288]  human recombinant HDAC6 (Homo sapiens)  HDAC6 selectivity (fold)                   486

----------
- SUBJECT OF TEST: human recombinant HDAC6 (Homo sapiens, UniProt Q9UBN7)
- Construct: purchased Calbiochem Inc. 382180
- Sequence (Q9UBN7 1-1215): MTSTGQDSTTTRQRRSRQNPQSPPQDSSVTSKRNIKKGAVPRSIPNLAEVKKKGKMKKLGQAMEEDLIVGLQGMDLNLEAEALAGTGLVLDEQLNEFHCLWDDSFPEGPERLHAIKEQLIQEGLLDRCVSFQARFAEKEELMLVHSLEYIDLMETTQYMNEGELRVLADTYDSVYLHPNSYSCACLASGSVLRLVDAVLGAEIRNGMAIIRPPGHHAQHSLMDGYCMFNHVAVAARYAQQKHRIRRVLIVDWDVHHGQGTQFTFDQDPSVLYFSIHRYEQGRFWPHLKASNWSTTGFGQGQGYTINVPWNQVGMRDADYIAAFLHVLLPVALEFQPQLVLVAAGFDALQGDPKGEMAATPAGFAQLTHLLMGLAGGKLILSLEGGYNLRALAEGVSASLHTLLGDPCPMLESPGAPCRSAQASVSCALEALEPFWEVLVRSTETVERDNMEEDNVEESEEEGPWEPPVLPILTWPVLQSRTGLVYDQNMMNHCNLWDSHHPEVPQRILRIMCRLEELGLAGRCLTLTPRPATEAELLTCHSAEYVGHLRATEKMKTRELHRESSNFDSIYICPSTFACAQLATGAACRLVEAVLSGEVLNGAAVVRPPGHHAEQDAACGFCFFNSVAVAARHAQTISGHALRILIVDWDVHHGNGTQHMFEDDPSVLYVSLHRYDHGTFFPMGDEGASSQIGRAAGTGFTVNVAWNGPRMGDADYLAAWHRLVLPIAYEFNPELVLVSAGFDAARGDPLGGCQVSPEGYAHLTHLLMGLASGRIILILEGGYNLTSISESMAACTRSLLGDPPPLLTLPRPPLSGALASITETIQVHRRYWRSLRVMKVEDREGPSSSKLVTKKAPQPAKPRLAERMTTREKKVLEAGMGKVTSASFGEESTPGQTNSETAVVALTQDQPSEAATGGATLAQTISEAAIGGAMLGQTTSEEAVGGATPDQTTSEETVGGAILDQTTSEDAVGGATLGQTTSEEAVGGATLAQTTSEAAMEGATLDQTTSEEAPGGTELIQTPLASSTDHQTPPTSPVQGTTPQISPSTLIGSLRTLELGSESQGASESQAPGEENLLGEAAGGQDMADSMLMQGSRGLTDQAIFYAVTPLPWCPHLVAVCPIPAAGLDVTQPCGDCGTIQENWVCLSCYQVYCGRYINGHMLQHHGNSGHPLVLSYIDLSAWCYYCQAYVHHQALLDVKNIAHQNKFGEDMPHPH
- PROTOCOL: HDAC6 enzyme activity inhibition (HDAC Fluorimetric Drug Discovery Kit)
- Format: biochemical
- CONDITION SUMMARY: HDAC1 IC50 / HDAC6 IC50
Reported HDAC6 selectivity (fold) is given for each of the following compounds.
MEASURED METRIC: HDAC6 selectivity (fold)

In [3]: df
Out[3]:
                               sample_smiles           measured_metric  output_unit  quantitative_readout
 0  CN1CCc2ccc(-c3cn(Cc4ccc(-c5nnc(C(F)F)o5)cn4)nn3)cc2C1  HDAC6 selectivity (fold)         fold                  1298
 1  CC(C)(C)OC(=O)Nc1cccc(-c2cn(Cc3ccc(-c4nnc(C(F)F)o4)cc3F)nn2)c1  HDAC6 selectivity (fold)         fold                  1101
 2  CC(C)N1CCN(Cc2cccc(-c3cn(Cc4ccc(-c5nnc(C(F)F)o5)cc4F)nn3)c2)CC1  HDAC6 selectivity (fold)         fold                   970
 3  CCCN1CCN(c2cccc(-c3cn(Cc4ccc(-c5nnc(C(F)F)o5)cc4)nn3)c2)CC1  HDAC6 selectivity (fold)         fold                   912
 4  FC(F)c1nnc(-c2ccc(Cn3cc(C4(F)COC4)nn3)nc2)o1  HDAC6 selectivity (fold)         fold                   292
 5  Fc1cc(-c2nnc(C(F)F)o2)ccc1Cn1cc(-c2cccc(CN3CCC(F)(F)CC3)c2)nn1  HDAC6 selectivity (fold)         fold                   794
 6  Cc1cc2ccc(-c3cn(Cc4ccc(-c5nnc(C(F)F)o5)cn4)nn3)cc2[nH]1  HDAC6 selectivity (fold)         fold                  2092
 7  CN1CCN(c2cc(-c3cn(Cc4ccc(-c5nnc(C(F)F)o5)cc4)nn3)ccc2F)CC1  HDAC6 selectivity (fold)         fold                   315
 8  Fc1cc(-c2nnc(C(F)F)o2)ccc1Cn1cc(-c2cccc(CN3CC(F)C3)c2)nn1  HDAC6 selectivity (fold)         fold                  1213
 9  FC(F)c1nnc(-c2ccc(Cn3cc(-c4ccccn4)nn3)nc2)o1  HDAC6 selectivity (fold)         fold                  1470
10  COC(=O)N1CCC[C@H]1c1cn(Cc2ccc(-c3nnc(C(F)F)o3)cn2)nn1  HDAC6 selectivity (fold)         fold                   238
11  FC(F)c1nnc(-c2ccc(Cn3cc(-c4ccc5cn[nH]c5c4)nn3)cc2)o1  HDAC6 selectivity (fold)         fold                  1222
12  CN1CC(NC(=O)c2cccc(-c3cn(Cc4ccc(-c5nnc(C(F)F)o5)cn4)nn3)c2)C1  HDAC6 selectivity (fold)         fold                  1388
13  CC(C)N1CC(c2cccc(-c3cn(Cc4ccc(-c5nnc(C(F)F)o5)cc4F)nn3)c2)C1  HDAC6 selectivity (fold)         fold                   759
14  CC(C)(C)OC(=O)N1CCC(c2cn(Cc3ccc(-c4nnc(C(F)F)o4)cc3F)nn2)CC1  HDAC6 selectivity (fold)         fold                   320
15  CC(C)N1CCC(Nc2ccc(F)c(-c3cn(Cc4ccc(-c5nnc(C(F)F)o5)cc4F)nn3)c2)CC1  HDAC6 selectivity (fold)         fold                  1369
